Listed next: entries and their corresponding IC50.
tested_system: human IBAT (Homo sapiens, UniProt Q12908)
Construct: Bases 599 to 1645 correspond to the complete coding region of human IBAT
Sequence (Q12908 1-348): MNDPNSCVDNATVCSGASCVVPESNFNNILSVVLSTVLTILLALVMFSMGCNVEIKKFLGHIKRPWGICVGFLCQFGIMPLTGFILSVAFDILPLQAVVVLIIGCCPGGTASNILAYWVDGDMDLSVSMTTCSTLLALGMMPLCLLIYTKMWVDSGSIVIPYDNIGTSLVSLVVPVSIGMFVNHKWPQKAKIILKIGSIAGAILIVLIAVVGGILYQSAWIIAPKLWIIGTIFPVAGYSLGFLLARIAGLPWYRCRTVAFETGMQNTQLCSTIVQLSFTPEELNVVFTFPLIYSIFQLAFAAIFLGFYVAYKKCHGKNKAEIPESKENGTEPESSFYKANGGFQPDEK
assay_text: In vitro IBAT inhibition assay: uptake of [3H]-taurocholic acid into CHO-hIBAT cells
setup_conditions: taurocholic acid 10 μM, 60 min at room temperature, read-out: IC-50 (human IBAT)
Give the value in nM but do not write nM after it.

{"query_smiles": "CCCC[C@]1(CC)CS(=O)(=O)c2ccc(N(C)C)cc2[C@@H](c2cccc(NC(=O)N[C@@H]3[C@@H](O)[C@H](OCc4ccccc4)[C@@H](O)[C@H](OCc4ccccc4)[C@H]3O)c2)[C@H]1O", "IC50, nM": 4.2}

Read the next record carefully.
Quick note, IC50 for "CCCC[C@]1(CC)CS(=O)(=O)c2ccc(N(C)C)cc2[C@@H](c2cccc(NC(=O)N[C@@H]3[C@@H](OS(=O)(=O)O)[C@H](OCc4ccccc4)[C@@H](OS(=O)(=O)O)[C@H](OCc4ccccc4)[C@H]3OS(=O)(=O)O)c2)[C@H]1O" landed at 16
